- Assay System: Cyclin E1 (Homo sapiens, UniProt P24864+Q96SW2)
- Sequence (P24864 whole entry): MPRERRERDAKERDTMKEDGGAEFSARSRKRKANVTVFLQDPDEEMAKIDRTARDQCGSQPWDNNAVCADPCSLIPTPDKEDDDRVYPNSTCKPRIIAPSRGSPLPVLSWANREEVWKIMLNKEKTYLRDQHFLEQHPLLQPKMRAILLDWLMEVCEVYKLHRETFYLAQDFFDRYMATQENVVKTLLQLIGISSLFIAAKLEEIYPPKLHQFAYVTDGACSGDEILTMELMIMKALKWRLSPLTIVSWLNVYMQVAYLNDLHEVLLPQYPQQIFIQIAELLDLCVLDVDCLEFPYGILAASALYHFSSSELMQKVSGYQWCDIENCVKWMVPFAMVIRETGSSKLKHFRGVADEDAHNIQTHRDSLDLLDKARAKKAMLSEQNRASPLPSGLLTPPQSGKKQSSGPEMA
- Sequence (Q96SW2 whole entry): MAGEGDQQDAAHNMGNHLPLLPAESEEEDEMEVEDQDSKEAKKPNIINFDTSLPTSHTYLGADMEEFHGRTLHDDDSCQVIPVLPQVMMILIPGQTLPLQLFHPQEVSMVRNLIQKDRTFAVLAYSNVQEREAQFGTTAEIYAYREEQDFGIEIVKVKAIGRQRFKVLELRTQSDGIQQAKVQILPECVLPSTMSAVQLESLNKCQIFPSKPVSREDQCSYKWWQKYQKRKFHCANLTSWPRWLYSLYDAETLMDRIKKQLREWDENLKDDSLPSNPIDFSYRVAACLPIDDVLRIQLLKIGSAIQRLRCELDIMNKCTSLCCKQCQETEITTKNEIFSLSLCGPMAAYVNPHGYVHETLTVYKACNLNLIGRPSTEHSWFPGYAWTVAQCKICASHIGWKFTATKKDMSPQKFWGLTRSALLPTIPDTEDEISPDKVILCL
- Sequence (Q16531 whole entry partner): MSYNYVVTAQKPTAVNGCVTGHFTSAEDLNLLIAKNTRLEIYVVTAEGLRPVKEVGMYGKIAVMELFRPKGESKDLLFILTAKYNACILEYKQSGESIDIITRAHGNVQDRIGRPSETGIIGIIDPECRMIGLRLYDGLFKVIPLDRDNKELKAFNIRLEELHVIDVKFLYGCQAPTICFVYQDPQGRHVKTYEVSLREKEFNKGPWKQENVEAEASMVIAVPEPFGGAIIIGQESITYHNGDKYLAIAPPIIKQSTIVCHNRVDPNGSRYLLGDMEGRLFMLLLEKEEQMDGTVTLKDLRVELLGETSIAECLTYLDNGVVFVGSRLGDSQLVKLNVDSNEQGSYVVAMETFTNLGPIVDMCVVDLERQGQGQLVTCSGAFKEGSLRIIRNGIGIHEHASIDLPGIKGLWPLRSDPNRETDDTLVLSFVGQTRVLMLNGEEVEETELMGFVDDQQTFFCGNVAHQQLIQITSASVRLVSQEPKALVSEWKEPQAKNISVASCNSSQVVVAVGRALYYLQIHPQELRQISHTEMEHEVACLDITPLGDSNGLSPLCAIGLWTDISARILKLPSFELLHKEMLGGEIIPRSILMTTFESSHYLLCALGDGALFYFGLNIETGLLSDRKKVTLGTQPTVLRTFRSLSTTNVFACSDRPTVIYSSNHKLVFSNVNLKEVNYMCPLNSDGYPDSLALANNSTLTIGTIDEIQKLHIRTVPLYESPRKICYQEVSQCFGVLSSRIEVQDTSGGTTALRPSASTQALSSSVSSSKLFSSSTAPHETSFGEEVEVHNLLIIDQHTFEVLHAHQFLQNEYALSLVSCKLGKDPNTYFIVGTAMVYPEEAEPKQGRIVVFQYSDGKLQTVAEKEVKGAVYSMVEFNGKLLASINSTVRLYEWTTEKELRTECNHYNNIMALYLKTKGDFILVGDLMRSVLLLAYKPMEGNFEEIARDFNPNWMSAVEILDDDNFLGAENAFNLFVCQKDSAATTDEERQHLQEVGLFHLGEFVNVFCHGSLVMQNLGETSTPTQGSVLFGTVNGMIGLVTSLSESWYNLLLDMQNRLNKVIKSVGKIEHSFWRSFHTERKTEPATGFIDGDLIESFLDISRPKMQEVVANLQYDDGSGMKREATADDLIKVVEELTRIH
- Method Summary: Cyclin E1 Cellular Degradation Assay (MSD)
- Format: cell-based
- Design: endogenous in cells; host or cells: OVCAR3
- Measurement Context: Cyclin E1 cellular degradation
Parameter: DC50 (µM)
Please reply with the bare figure in µM and do not write the unit itself.

Solved entries (count: 4):
Asked: Query (molecule): COc1c(COC(=O)Nc2ccc(Oc3cc(F)c(F)c(F)c3)cc2Cl)ccc2c1C(=O)N(C1CCC(=O)NC1=O)C2 (centres unmarked) ; field requested: DC50
Given back: 0.184

Asked: DC50 lookup needed for COc1c(COC(=O)Nc2ccc(Oc3ccc(F)cc3C)cc2C)ccc2c1C(=O)N(C1CCC(=O)NC1=O)C2 (centres unmarked) , thanks.
Given back: 0.267

Asked: Returns the measured DC50 for the input molecule. Input: COc1c(COC(=O)Nc2ccc(Oc3ccccc3C(F)F)cc2)ccc2c1C(=O)N(C1CCC(=O)NC1=O)C2 (centres unmarked)
Given back: 0.181

Asked: Quick one: DC50 of O=C1CCC(N2Cc3ccc(COC(=O)Nc4ccc(Oc5ccc(F)c(F)c5)cc4)c(OCC(=O)N4CCOCC4)c3C2=O)C(=O)N1 (centres unmarked) ?
Given back: 0.11

New cases:
Asked: I'd like to know its DC50. The molecule in question is O=C1CCC(N2Cc3ccc(COC(=O)Nc4ccc(Oc5ccccc5Cl)cc4)c(OC4CCC4)c3C2=O)C(=O)N1 (centres unmarked)
Given back: 0.126

Asked: Value lookup for DC50; key = COc1cc(F)c(F)cc1Oc1ccc(NC(=O)OCc2ccc3c(c2OC)C(=O)N(C2CCC(=O)NC2=O)C3)c(C)c1 (centres unmarked)
Given back: 1.63
